Entry source: paper PMC7815786

- Tested on: Mycobacterium smegmatis (ATCC607)
- Type: cell-based
- Protocol Conditions: ATCC607, 72 h
Where a SMILES comes first, the peptide text is derived from it. [ ]: non-standard residue; d: D form.
Test Readout: MIC M.smegmatis, Medium (µM)

INSERT INTO results (compound, recorded_number) VALUES
  ('CC(C)C[C@H](NC(=O)[C@@H](Cc1c[nH]c2ccccc12)NC(=O)[C@H](CC(C)C)NC(=O)[C@@H](Cc1c[nH]c2ccccc12)NC(=O)[C@H](CCCNC(=N)N)NC(=O)[C@@H](CCCCN)NC(=O)[C@@H](N)CCCNC(=N)N)C(=O)N[C@H](CCCCN)C(=O)N[C@@H](CCCNC(=N)N)C(=O)N[C@H](CCCCN)C(=O)N[C@@H](Cc1c[nH]c2ccccc12)C(=O)N[C@H](CC(C)C)C(=O)N[C@@H](Cc1c[nH]c2ccccc12)C(N)=O [AS02] (H-R[dK]R[dW]L[dW]L[dK]R[dK]W[dL]W-NH2)', 3.13),
  ('CC(C)[C@H](NC(=O)[C@H](NC(=O)[C@H](Cc1c[nH]c2ccccc12)NC(=O)[C@@H](Cc1c[nH]c2ccccc12)NC(=O)[C@H](CCCCN)NC(=O)[C@@H](CCCCN)NC(=O)[C@H](CCCCN)NC(=O)[C@H](NC(=O)[C@H](Cc1c[nH]c2ccccc12)NC(=O)[C@@H](Cc1c[nH]c2ccccc12)NC(=O)[C@H](CCCCN)NC(=O)[C@@H](CCCCN)NC(=O)[C@@H](N)CCCCN)C(C)C)C(C)C)C(N)=O [AS03] (H-K[dK]K[dW]W[dV]K[dK]K[dW]W[dV]V-NH2)', 6.25),
  ('CC(C)[C@H](NC(=O)[C@H](NC(=O)[C@H](CCCCN)NC(=O)[C@@H](CCCCN)NC(=O)[C@H](CCCCN)NC(=O)[C@H](NC(=O)[C@@H](NC(=O)[C@H](NC(=O)[C@H](CCCCN)NC(=O)[C@@H](CCCCN)NC(=O)[C@@H](N)CCCCN)C(C)C)C(C)C)C(C)C)C(C)C)C(=O)N[C@H](Cc1c[nH]c2ccccc12)C(=O)N[C@@H](CCCCN)C(N)=O [AS06] (H-K[dK]K[dV]V[dV]K[dK]K[dV]V[dW]K-NH2)', 25),
  ('CC(C)[C@H](NC(=O)[C@@H](Cc1c[nH]c2ccccc12)NC(=O)[C@H](Cc1c[nH]c2ccccc12)NC(=O)[C@@H](CCCCN)NC(=O)[C@H](CCCNC(=N)N)NC(=O)[C@@H](CCCCN)NC(=O)[C@@H](NC(=O)[C@H](NC(=O)[C@H](Cc1c[nH]c2ccccc12)NC(=O)[C@@H](Cc1c[nH]c2ccccc12)NC(=O)[C@H](CCCNC(=N)N)NC(=O)[C@@H](CCCCN)NC(=O)[C@@H](N)CCCNC(=N)N)C(C)C)C(C)C)C(N)=O [AS01] (H-R[dK]R[dW]W[dV]V[dK]R[dK]W[dW]V-NH2)', 6.25),
  ('CC(C)[C@@H](NC(=O)[C@H](Cc1c[nH]c2ccccc12)NC(=O)[C@H](NC(=O)[C@H](CCCCN)NC(=O)[C@@H](CCCCN)NC(=O)[C@H](CCCCN)NC(=O)[C@@H](Cc1c[nH]c2ccccc12)NC(=O)[C@@H](N)Cc1c[nH]c2ccccc12)C(C)C)C(=O)N[C@@H](CCCCN)C(=O)N[C@H](CCCCN)C(=O)N[C@@H](CCCCN)C(=O)N[C@H](Cc1c[nH]c2ccccc12)C(=O)N[C@@H](Cc1c[nH]c2ccccc12)C(N)=O [AS04] (H-W[dW]K[dK]K[dV]W[dV]K[dK]K[dW]W-NH2)', 6.25),
  ('CC(C)C[C@@H](NC(=O)[C@H](Cc1c[nH]c2ccccc12)NC(=O)[C@@H](CC(C)C)NC(=O)[C@@H](N)Cc1c[nH]c2ccccc12)C(=O)N[C@@H](Cc1c[nH]c2ccccc12)C(=O)N[C@H](CC(C)C)C(=O)N[C@@H](Cc1c[nH]c2ccccc12)C(=O)N[C@@H](C(=O)N[C@@H](CCCCN)C(=O)N[C@H](CCCCN)C(=O)N[C@@H](C)C(=O)N[C@H](CCCCN)C(=O)N[C@@H](C)C(=O)N[C@H](CCCCN)C(=O)N[C@@H](CCCCN)C(N)=O)C(C)C [AS08] (H-W[dL]W[dL]W[dL]W[dV]K[dK]A[dK]A[dK]K-NH2)', 6.25);
